measurement_target: hMATE1 (multidrug and toxin extrusion protein 1) (Homo sapiens)
Construct: hMATE1 stably transfected in HEK293 cells
Sequence (Q96FL8 whole entry): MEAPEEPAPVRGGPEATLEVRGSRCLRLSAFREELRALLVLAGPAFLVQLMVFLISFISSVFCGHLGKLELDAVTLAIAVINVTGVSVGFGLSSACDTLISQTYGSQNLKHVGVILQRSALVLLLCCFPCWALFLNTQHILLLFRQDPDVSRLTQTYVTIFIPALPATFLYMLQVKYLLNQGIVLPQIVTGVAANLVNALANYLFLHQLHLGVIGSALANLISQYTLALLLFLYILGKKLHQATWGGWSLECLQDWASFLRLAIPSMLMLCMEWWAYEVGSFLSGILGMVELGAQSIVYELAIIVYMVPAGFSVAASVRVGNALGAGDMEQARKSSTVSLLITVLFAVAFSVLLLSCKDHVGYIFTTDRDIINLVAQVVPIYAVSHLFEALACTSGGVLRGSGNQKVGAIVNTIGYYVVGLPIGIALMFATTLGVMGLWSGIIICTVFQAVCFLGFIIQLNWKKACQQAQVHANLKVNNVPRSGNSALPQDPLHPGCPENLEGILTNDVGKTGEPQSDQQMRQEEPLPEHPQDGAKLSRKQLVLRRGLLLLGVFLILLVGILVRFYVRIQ
protocol_summary: cis-inhibition of ASP+ uptake in hMATE1-HEK293 cells after acidification; supported by LC/MS of temperature-dependent tofacitinib export
measured_metric: IC50 (µM)

- chem_smiles: "C[C@@H]1CCN(C(=O)CC#N)C[C@@H]1N(C)c1ncnc2[nH]ccc12"
  meas_value: 19.8
